Each item that follows carries a reported GI50.
# Tested on: SNB-75
# test: NCI tumour cell line growth inhibition, 48 h
The source made the active and inactive calls. Cut-off read from the data, not from the text of the source: active = GI50 up to about 1.1 µM and inactive = higher.

compound	GI50
CCOC(=O)C1CCCCN1C(=O)OCc1ccccc1 (stereo not drawn)	> 100 µM (inactive)
C=CCNC(=O)ON1C(=O)CCC1=O	> 100 µM (inactive)

Alright, here's another compound for you.
Reported GI50 ( c1ccc(C2(c3ccccc3)SSC3(S2)C2CC4CC(C2)CC3C4)cc1 (stereo not drawn) ) = > 100 µM (inactive)

====

Let's go through some recorded GI50 values for HCT-15 together.

Solved cases (5 shown):
compound	result
O=C1CCCCC1CN1CCCC1 (stereo unspecified)	> 100 µM
O=C(O)C(F)(OC(F)(F)C(F)(F)C(F)(F)F)C(F)(F)F (stereo unspecified)	> 100 µM
CC(C)(CCCCC(C)(C)NC1=NCCO1)NC1=NCCO1	> 10 µM
O=C1N[C@@H]([C@H](CCCCCO)OC(=O)c2ccccc2)CO1	> 100 µM
CC(=O)NC1CC(C(C)(C)NC(C)=O)CC=C1C (stereo unspecified)	> 100 µM

Reported GI50 ( "CC(C)(C)C(=O)OCC(COC(=O)C(C)(C)C)[N+](=O)[O-]" ) = > 100 µM

Reported GI50 ( "Nc1nnnn1CCO" ) = > 100 µM

Reported GI50 ( Cc1ccc(S(=O)(=O)NNC2Oc3cc4c(cc3C(c3ccccc3O)C2C)OCO4)cc1 (stereo unspecified) ) = 4.9 µM

Reported GI50 ( COc1ccc(C(Nc2ccccn2)c2cc(C(C)(C)C)cc(C(C)(C)C)c2O)cc1 (stereo unspecified) ) = 22.3 µM

Reported GI50 ( "CC(C)C[C@H](NC(=O)[C@@H](N)Cc1cccc2ccccc12)B(O)O" ) = 0.033 µM

Reported GI50 ( "O=C(/C=C/CC(O)(c1ccccc1)c1ccccc1)Nc1ccccc1Cl" ) = > 100 µM

====

# Test system: OVCAR-4
# test: NCI tumour cell line growth inhibition, 48 h
Activity calls are given as the source filed them. Rule as the data show it: active = GI50 up to about 1.1 µM and inactive = higher.
Each item that follows carries a reported GI50.

cpd-smiles	GI50
O=c1sc2c(s1)-c1sc(=O)sc1SS2	> 100 µM (inactive)
O=c1nc2n3c4c(cccc4nc-2c(=O)[nH]1)CCC3	86.7 µM (inactive)
O=c1[nH]c(=O)n(C/C=C/CO)nc1Br	> 100 µM (inactive)
CC(=O)N(O)c1ccc(-c2nc3ccccc3s2)cc1	28.2 µM (inactive)
Cc1nc(C)c(N2CCN(S(N)(=O)=O)CC2)c(O)n1	> 100 µM (inactive)

Reported GI50 ( "O=C(Nc1ccc(F)cc1)c1cc2ccc(O)cc2o/c1=N\c1ccccc1F" ) = 21.3 µM (inactive)

Reported GI50 ( "CC(C)(C)c1cc2c(O)c(c1)COCc1cc(C(C)(C)C)cc(c1O)COCc1cc(C(C)(C)C)cc(c1O)COC2" ) = > 100 µM (inactive)

Reported GI50 ( "CN(c1ccccc1)c1c(-c2ccccc2)c(=O)oc2c1ccc1occc12" ) = > 81.8 µM (inactive)

Reported GI50 ( "C[C@@]12c3c4ccc(C=O)c3Oc3ccc(C=O)c(c31)Oc1c(C=O)ccc(c12)O4" ) = > 100 µM (inactive)

====

Each item that follows carries a reported GI50.
# System: MDA-MB-231
# test: NCI tumour cell line growth inhibition, 48 h
Active and inactive are the calls of the source. Rule as the data show it: active = GI50 up to about 1.1 µM and inactive = higher.

Solved cases (3 shown):
molecule	GI50
CC(C(=O)N1C(=O)N(C(=O)[C@H](C)C(O)c2ccccc2)[C@H](c2ccccc2)[C@H]1c1ccccc1)[C@@H](O)c1ccccc1 (some centres not stated)	19.5 µM (inactive)
CSC(=N/N=C(\C)c1ccc(S(=O)(=O)N(C)c2ccccc2)cc1)SC	> 61.8 µM (inactive)
COc1ccc(C(Nc2ccccn2)c2cc(C(C)(C)C)cc(C(C)(C)C)c2O)cc1 (configuration not stated)	33.4 µM (inactive)

Reported GI50 ( Cc1nn(C(=O)Cc2ccccc2)c2c1C(c1ccc(N(C)C)cc1)SC(=N)N2 (configuration not stated) ) = > 100 µM (inactive)

Reported GI50 ( "COc1cc(/C=N/N=C2NCCCN2)ccc1O" ) = > 100 µM (inactive)

Reported GI50 ( "Nc1nc(SCC(=O)c2ccc(Br)cc2)c2nc[nH]c2n1" ) = 52.1 µM (inactive)

Reported GI50 ( "Cc1cc(=O)nc(S(=O)(=O)NC(=S)Nc2ccc(Br)cc2)[nH]1" ) = > 100 µM (inactive)

====

# Tested on: SK-OV-3
# test: NCI tumour cell line growth inhibition, 48 h
Activity calls are given as the source filed them. Cut-off read from the data, not from the text of the source: active = GI50 up to about 1.1 µM and inactive = higher.
Would you mind answering with one of these outcomes? yes (1) (active), no (0) (inactive)

molecule	measured-on	classification
Cc1nccc2c1cnc1ccnn12	SK-OV-3	no (0)
O=C(c1ccc(Cl)cc1)N1N=C(c2ccc(Cl)cc2)CC1(O)c1cc(F)c(Cl)cc1Cl (stereo not given)	SK-OV-3	no (0)
NC(CCOCCP(=O)(O)CCC1C=CC=CC1)C(=O)O (stereo not given)	SK-OV-3	no (0)

Lab log entry: "COc1cc(/C=N/N=C2NCCCN2)ccc1O" — outcome as called in the assay?
no (0)

Lab log entry: C=C(Nc1nc2ccc(C)cc2s1)C(=O)C(CC)C(=O)C(CC)CC1C(=O)NC(=O)NC1=O (stereo not given) — outcome as called in the assay?
no (0)

Lab log entry: "C=C(CCCO)[C@@H]1CC[C@@](C)(O)[C@H]1C" — outcome as called in the assay?
yes (1)

Lab log entry: CNC(=O)C(C)NC(=O)C(Cc1ccccc1)NC(=O)OC(C)(C)C (stereo not given) — outcome as called in the assay?
no (0)

Lab log entry: "COc1ccc2cc(CNCCCCCCNC(=O)Nc3cccc4ccccc34)ccc2c1" — outcome as called in the assay?
no (0)

====

# Tested on: CCRF-CEM
# test: NCI tumour cell line growth inhibition, 48 h
Calls of active or inactive are those of the source. Rule as the data show it: active = GI50 up to about 1.1 µM and inactive = higher.
Would you mind answering with one of these outcomes? T = active, F = inactive

molecule	classification
NC(CCOCCP(=O)(O)CCC1C=CC=CC1)C(=O)O (stereo not drawn)	F
CC12CC3C(CC1SCC(=O)O2)C3(C)C (stereo not drawn)	F
CC(C)C(/C=C/c1ccc(Br)cc1)=N\NC(N)=O	F

Lab log entry: "COc1ccc(OC)c(/C=C/c2ccnc3ccccc23)c1" — outcome as called in the assay?
T

Lab log entry: COc1cc2c(cc1OC)C1CN3C(=O)CCC3C(O)C1c1cc(OC)c(OC)cc1-2 (stereo not drawn) — outcome as called in the assay?
F

Lab log entry: "CC(C)(C)OC(=O)N(O)[C@@H]1CC[C@H](n2cnc3c(N)ncnc32)C1" — outcome as called in the assay?
F

Lab log entry: "O=C1C(=O)c2cc([N+](=O)[O-])ccc2-c2ccc([N+](=O)[O-])cc21" — outcome as called in the assay?
T

Lab log entry: "CCS(=O)(=O)CCn1cnc2c1c(=O)n(C)c(=O)n2C" — outcome as called in the assay?
F

====

Each item that follows carries a reported GI50.
# Tested on: HT-29
# test: NCI tumour cell line growth inhibition, 48 h
Active and inactive are the calls of the source. No stated cut-off is given here; in the data, active = GI50 up to about 1.1 µM and inactive = higher.

molecule	GI50
CC[C@H](C)C1=C(OC(C)=O)[N@+]2([O-])Oc3ccc(-c4c(OC(C)=O)c(OC(C)=O)c(-c5ccc(OC(C)=O)cc5)c(OC(C)=O)c4OC(C)=O)cc3O[C@]2([C@@H](C)CC)C(=O)N1OC(C)=O	15.6 µM (inactive)

Reported GI50 ( O=C(c1ccc(Cl)cc1)N1N=C(c2ccc(Cl)cc2)CC1(O)c1cc(F)c(Cl)cc1Cl (configuration not stated) ) = 8.95 µM (inactive)

Reported GI50 ( COc1ccc(OC)c(C2CCc3cnc4nc(N)nc(N)c4c3C2)c1 (configuration not stated) ) = 70.1 µM (inactive)

Reported GI50 ( "CC(=O)O[C@H]1[C@@H](OC(C)=O)C(C)(C)/C=C/[C@H](C)C(=O)[C@@]2(OC(C)=O)C[C@@](C)(OC(C)=O)[C@H](OC(C)=O)[C@@H]2[C@H]2OC(=O)CC[C@@]2(OC(=O)c2ccccc2)[C@@H]1OCC(C)C" ) = 13.5 µM (inactive)

Reported GI50 ( Nc1ccc(C(=O)NN2C(=O)C(Cl)C2c2ccccc2)cc1 (configuration not stated) ) = > 100 µM (inactive)

Reported GI50 ( "CCO/N=C(/CC)c1ccc(Br)s1" ) = > 100 µM (inactive)

Reported GI50 ( "COc1ccc2c(c1)CC[C@@H]1[C@@H]2CC[C@]2(C)C(=O)/C(=C/c3ccncc3)C[C@@H]12" ) = 33.1 µM (inactive)

====

# Test system: SR
# test: NCI tumour cell line growth inhibition, 48 h
Activity calls are given as the source filed them. Rule as the data show it: active = GI50 up to about 1.1 µM and inactive = higher.
quantity-measured: GI50

Solved cases (5 shown):
compound	GI50
COC(=O)C(CCC(=O)CCl)N1C(=O)c2ccccc2C1=O (configuration not stated)	3.39 µM (inactive)
CC(=O)O[C@@H](c1nccn1Cc1ccccc1)[C@H]1OC(C)(C)O[C@@H]1[C@H]1COC(C)(C)O1	> 10 µM (inactive)
COc1cccc(CCN2CCN(CCCc3ccccc3)CC2)c1	30.5 µM (inactive)
CCN(CC)CC/N=c1\c2cc(OC)ccc2[nH]c2c([N+](=O)[O-])ccc(NCCN(CC)CC)c12	0.16 µM (active)
OC1CSc2nc3ccccc3n2C1 (configuration not stated)	> 100 µM (inactive)

Reported GI50 ( "COc1cc(/C=N/N=C2NCCCN2)ccc1O" ) = > 100 µM (inactive)

Reported GI50 ( N#CC1=C(N)Nc2nc3ccccc3n2C1c1ccccc1 (configuration not stated) ) = 83.6 µM (inactive)
